biological target: P. falciparum apicoplast DNA polymerase (Pf-apPOL) (Plasmodium falciparum); test: Fluorescence-based high-throughput DNA polymerase assay (molecular beacon), primary screen and dose-response; type: biochemical; details: DRC-2; 90'; conc 20;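 note: test concentration in µM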
Sequence (Q8ILY1 entry or part of it): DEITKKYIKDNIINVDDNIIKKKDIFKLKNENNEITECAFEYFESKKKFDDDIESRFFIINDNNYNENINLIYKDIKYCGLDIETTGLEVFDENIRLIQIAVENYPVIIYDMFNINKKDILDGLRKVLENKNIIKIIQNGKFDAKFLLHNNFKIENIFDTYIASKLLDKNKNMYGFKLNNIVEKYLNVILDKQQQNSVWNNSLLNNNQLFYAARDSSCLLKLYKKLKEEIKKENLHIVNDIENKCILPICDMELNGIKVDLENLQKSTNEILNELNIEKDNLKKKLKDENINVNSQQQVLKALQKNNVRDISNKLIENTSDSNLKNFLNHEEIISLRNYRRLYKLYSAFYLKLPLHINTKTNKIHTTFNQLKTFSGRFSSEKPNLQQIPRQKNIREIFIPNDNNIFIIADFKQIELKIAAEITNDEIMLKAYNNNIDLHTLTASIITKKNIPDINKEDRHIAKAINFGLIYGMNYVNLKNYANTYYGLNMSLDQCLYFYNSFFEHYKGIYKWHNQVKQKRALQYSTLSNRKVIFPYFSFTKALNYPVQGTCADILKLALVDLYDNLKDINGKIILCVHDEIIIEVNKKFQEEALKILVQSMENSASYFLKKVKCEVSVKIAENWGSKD
Observation Type: % inhibition ApPOL 90' (%)
Write it as a number; the unit % goes unstated.

Below, 5 compounds whose answers are already recorded.
O=C1Nc2ccc(I)cc2C1=Cc1cc(Br)c(O)c(Br)c1 [Molecule 27]	70
O=C1NN(c2ccc(Cl)c(Cl)c2)C(=O)/C1=C/c1ccc(-c2ccc3c(c2)C(=O)OC3)o1 [Molecule 90]	40
COC(=O)c1sc(-c2ccc(C(C)(C)C)cc2)cc1NC(=O)CCC(=O)O [Molecule 87]	62
Cc1cccc(NC(=O)Cn2ccc3c(=O)[nH]ccc32)c1C [Molecule 11, O=C(Cn1ccc2c1cc[nH]c2=O)Nc1cccc(c1C)C]	70
Cc1ccc(N2NC(=O)/C(=C\c3ccc(O)c([N+](=O)[O-])c3)C2=O)cc1Cl [KU0058427]	44

For the compound shown here, N#CC(C#N)=C1SCN(c2cccc(Cl)c2)CS1 [Molecule 29, N#CC(=C1SCN(CS1)c1cccc(c1)Cl)C#N] , give the reported % inhibition ApPOL 90'.
66

Moving on to the next compound: C=CCOc1c(Br)cc(Br)cc1/C=C1\SC(=N)NC1=O [KU0051640]
56

Moving on to the next compound: CCOc1nc2cccc(C(=O)OC(C)OC(=O)OC3CCCCC3)c2n1Cc1ccc(-c2ccccc2-c2nnn[nH]2)cc1 (stereo not drawn) [Molecule 94]
73

Moving on to the next compound: O=C(O)c1ccc(COc2cc([N+](=O)[O-])cc3cccnc23)cc1 [KU0058403]
35

----------
Target: P. falciparum apicoplast DNA polymerase (Pf-apPOL) (Plasmodium falciparum)
Assay: Fluorescence-based high-throughput DNA polymerase assay (molecular beacon), primary screen and dose-response;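 note: test concentration in µM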
Format: biochemical
Settings: DRC-2; 180'; conc 80
Description: The HT assay employs a molecular beacon, a stem-loop DNA template with a Cy3 dye and the Black Hole Quencher on the 3′ and 5′ ends of the DNA, respectively. Pf-apPOL concentration is based on a calculated absorptivity of ε280 = 56750 M^−1 cm^−1. […] To identify apPOL inhibitors we utilised our previously developed high-throughput DNA polymerase assay. […] The assay accurately recapitulates the kinetic behaviour of apPOL, as measured through more conventional low-throughput gel-based assays. […]
This listing pairs compounds with measured % inhibition apPOL 180'.

Below, 5 compounds whose answers are already recorded.
Cc1cccc(NC(=O)Cn2ccc3c(=O)[nH]ccc32)c1C [Molecule 11, O=C(Cn1ccc2c1cc[nH]c2=O)Nc1cccc(c1C)C]	77%
C=CC1=C(C)c2cc3[nH]c(cc4nc(cc5[nH]c(cc1n2)c(C)c5CCC(=O)O)C(CCC(=O)O)=C4C)c(C)c3C=C	79%
COC(=O)c1sc(-c2ccc(C(C)(C)C)cc2)cc1NC(=O)CCC(=O)O	73%
CCOc1nc2cccc(C(=O)OC(C)OC(=O)OC3CCCCC3)c2n1Cc1ccc(-c2ccccc2-c2nnn[nH]2)cc1 (stereo not drawn)	75%
O=c1nc(/C=C/c2ccc(Br)cc2)oc2ccccc12	79%

Reported % inhibition apPOL 180' for P. falciparum apicoplast DNA polymerase (Pf-apPOL) (Plasmodium falciparum), given Cc1cc(C)c2c(c1)C1C=CCC1C(c1ccc(C(=O)O)cc1)N2 (stereo not drawn) ?
83%
